- Tested on: COLO 205 colon
- measurement notes: NCI tumour cell line growth inhibition, 48 h
// TGI lookup, one value per entry

molecule: COc1ccc2c(c1)[n+]([O-])c(-c1ccc([N+](=O)[O-])cc1)c(N)[n+]2[O-]
target of assay: COLO 205 colon
TGI: > 100 µM
//
molecule: Nc1ccccc1Nc1ccccc1C(=O)[O-].Nc1ccccc1Nc1ccccc1C(=O)[O-].[Zn+2]
target of assay: COLO 205 colon
TGI: > 100 µM
//
molecule: O=C1C(Cl)=C(Sc2nnc3c4ccccc4c4ccccc4c3n2)C(=O)c2ccccc21
target of assay: COLO 205 colon
TGI: 38.9 µM
//
molecule: CC(=O)Nc1ccccc1-c1nc2ccccc2nc1C
target of assay: COLO 205 colon
TGI: > 100 µM
//
molecule: O=C1c2[nH]cc(CNC3CN4CCC3CC4)c2C(=O)c2c1c(O)c1ccccc1c2O (configuration not stated)
target of assay: COLO 205 colon
TGI: 9.56 µM
//
molecule: O=C1C(Cl)N(c2cccc(Cl)c2)C1c1c[nH]c2ccccc12 (configuration not stated)
target of assay: COLO 205 colon
TGI: > 100 µM
//
molecule: O=C(C=C1SCCS1)/C=C\c1ccc(Cl)cc1
target of assay: COLO 205 colon
TGI: > 100 µM
//
molecule: COC1OC(CO)C(O)C(OC(C)=O)C1NC(=O)N(CCCl)N=O (configuration not stated)
target of assay: COLO 205 colon
TGI: > 100 µM
//
molecule: CCN(CC)CCNc1ccc(C)c2sc3cc(Cl)ccc3c(=O)c12
target of assay: COLO 205 colon
TGI: 3.35 µM
//
molecule: Clc1ccc(Nc2nnc(CCCCCCCCc3nnc(Nc4ccc(Cl)cc4)o3)o2)cc1
target of assay: COLO 205 colon
TGI: > 100 µM
//
molecule: COc1cc2c(cc1C[C@H]1[C@@H]3C[C@H]4c5c(c6ccccc6n5C)C[C@@H]([C@@H]3CO[C@]1(C)OC(C)=O)N4C)c1c(n2C)C2C[C@H]3C(C(C)=O)=COC[C@H]3[C@H](C1)N2C
target of assay: COLO 205 colon
TGI: 6.19 µM
//
molecule: CC12OOC(c3ccccc31)c1c2ccc2ccccc12 (configuration not stated)
target of assay: COLO 205 colon
TGI: 3.24 µM
//
molecule: Cc1c(O)c2ccccc2oc1=O
target of assay: COLO 205 colon
TGI: > 100 µM
//
molecule: O=C(c1cc2ccccc2[nH]1)N1C2CCC1CN(CCOC(c1ccc(F)cc1)c1ccc(F)cc1)CC2 (configuration not stated)
target of assay: COLO 205 colon
TGI: > 100 µM
//
molecule: O=C(O)/C=C/C(=O)N1Cc2cc3ccccc3nc2C1
target of assay: COLO 205 colon
TGI: > 100 µM
//
molecule: O=C(NC(=S)Nc1ccc2c(c1)Sc1ccccc1O2)c1ccc([N+](=O)[O-])cc1
target of assay: COLO 205 colon
TGI: > 100 µM
//
molecule: CCOC(=O)c1ccc(Nc2sc(C(=O)c3ccc(Br)cc3)c(N)c2C#N)cc1
target of assay: COLO 205 colon
TGI: 2.47 µM
//
molecule: CN(C)c1ccc(/C=C/c2ccnc3c(O)cccc23)cc1
target of assay: COLO 205 colon
TGI: > 100 µM
//
molecule: C=C=C(C(=O)OC)S(=O)c1ccccc1[N+](=O)[O-] (configuration not stated)
target of assay: COLO 205 colon
TGI: > 100 µM
//
molecule: CCN1CCCC(C#N)(c2ccccc2)CC1 (configuration not stated)
target of assay: COLO 205 colon
TGI: > 100 µM
//
molecule: COc1cc(/C=C2\C[C@H]3[C@@H]4CC=C5C[C@@H](O)CC[C@]5(C)[C@H]4CC[C@]3(C)[C@H]2O)ccc1OCCN1CCCC1
target of assay: COLO 205 colon
TGI: > 50 µM
//
molecule: Cc1cc([N+](=O)[O-])ccc1Sc1c2ccccc2nc2cc(Cl)ccc12
target of assay: COLO 205 colon
TGI: > 100 µM

====

- Tested on: U251 CNS
- measurement notes: NCI tumour cell line growth inhibition, 48 h
*1 amine or outer side, *2 acyl side, *3 side chain or, on linkers, in order; H or OH if unused. Where a SMILES comes first, the peptide text is derived from it. [ ]: non-standard residue; d: D form. The star is where a group is joined. ξ: configuration not given here. X27 = O=C([C@H]1CCC[C@H]1N[*:1])[*:2]; ξW = NC(Cc1c[nH]c2ccccc12)C(=O)O; ξF = NC(Cc1ccccc1)C(=O)O; Boc = CC(C)(C)OC(=O)*; ξK = NCCCCC(N)C(=O)O; ξT = CC(O)C(N)C(=O)O; tBu = CC(C)(C)*
// TGI lookup, one value per entry

molecule: Nc1cc(F)ccc1CC(=O)O
unit info: µM
inequality operator: >
TGI: 100
//
molecule: C=C(C)C(=O)O[C@H]1CC2=C[C@@H](C[C@@]3(C)O[C@@H]3[C@H]3OC(=O)C(=C)[C@@H]31)OC2=O
unit info: µM
inequality operator: =
TGI: 14.6
//
molecule: CCCCc1ccc(Nc2nc(Cl)c3ncn(COCCOC(C)=O)c3n2)cc1
unit info: µM
inequality operator: =
TGI: 35
//
molecule: CC1(C)CC(=O)C(/C=N/C(N)=S)=C(O)C1
unit info: µM
inequality operator: >
TGI: 100
//
molecule: CCOC(=O)C1=C(C)N=c2s/c(=C\c3ccccc3O)c(=O)n2C1c1ccc(OC)c2ccccc12 (configuration not stated)
unit info: µM
inequality operator: =
TGI: 6.58
//
molecule: CCCCCCCCCCCCCCCCCCNc1ccn(C2OC(COP(=O)(O)OCC3OC(n4cc(C)c(=O)[nH]c4=O)CC3F)C(O)C2O)c(=O)n1 (configuration not stated)
unit info: µM
inequality operator: =
TGI: 15
//
molecule: CCN1CCCC(C#N)(c2ccccc2)CC1 (configuration not stated)
unit info: µM
inequality operator: >
TGI: 100
//
molecule: C#CCNC(=O)N(CC#C)N=O
unit info: µM
inequality operator: >
TGI: 100
//
molecule: COc1ccc(C(=O)Nc2ncc(Cc3cccc(Cl)c3)s2)cc1OC
unit info: µM
inequality operator: >
TGI: 100
//
molecule: O=P1(Oc2ccccc2)N=P(c2ccccc2)(c2ccccc2)C=C(c2ccc(Cl)cc2)N1 (configuration not stated)
unit info: µM
inequality operator: =
TGI: 18.8
//
molecule: Cc1c2ccnc(C(=O)NCCN(C)C)c2cc2c3cc(O)ccc3n(C)c12
unit info: µM
inequality operator: =
TGI: 2.43
//
molecule: CCOC(=O)C1SC(=Nc2cccc(Cl)c2C)N=C1C (configuration not stated)
unit info: µM
inequality operator: =
TGI: 30.3
//
molecule: CC(OC(C)(C)C)C1NC(=O)C(CCCCNC(=O)OC(C)(C)C)NC(=O)C(Cc2c[nH]c3ccccc23)NC(=O)C(Cc2ccccc2)NC(=O)[C@H]2CCC[C@H]2NC(=O)C(Cc2ccccc2)NC1=O (some centres not stated) (cyclo([X27][ξF][ξW][ξK](Boc)[ξT](tBu)[ξF]))
unit info: µM
inequality operator: >
TGI: 100
//
molecule: COc1cc2nccc(Oc3ccc(NC(=O)NC4CC4)c(Cl)c3)c2cc1C(N)=O
unit info: µM
inequality operator: =
TGI: 42.8
//
molecule: CC[C@@H]1[C@@H](C)O[C@@](O)([C@@H](C)[C@H](O)[C@H](C)[C@H]2OC(=O)/C=C/C=C/[C@H](C)[C@@H]([C@@H](C)[C@@H](O)[C@H](C)[C@@]3(O)C[C@@H](O[C@H]4C[C@@H](O)[C@H](O)C(C)O4)[C@H](CC)[C@@H](C)O3)OC(=O)/C=C/C=C/[C@@H]2C)C[C@H]1O[C@@H]1C[C@@H](O)[C@H](O)C(C)O1 (some centres not stated)
unit info: µM
inequality operator: =
TGI: 0.39
//
molecule: CCN(CC)C(=O)Cn1c(-c2ccccc2)cc2ccccc21
unit info: µM
inequality operator: >
TGI: 100
//
molecule: O=[N+]([O-])c1ccc(-c2cc(O)c3nc4ccccc4n3c2)cc1
unit info: µM
inequality operator: >
TGI: 100

====

- System: CCRF-CEM leukemia
- measurement notes: NCI tumour cell line growth inhibition, 48 h
// GI50 lookup, one value per entry

compound: CN1CCC(COc2cnc(-c3cccc(Cn4nc(-c5cccc(C#N)c5)ccc4=O)c3)nc2)CC1
GI50: 2560 nM

compound: CSC1=Nc2c(c(C)c(-c3ccccc3)n2CCCN2CCCCC2)C2=NC(=O)C[C@H](C)N12
GI50: 2680 nM

compound: COC(=O)[C@@H](C)C[C@H](Cc1cn(C)c2ccccc12)NC(=O)c1csc([C@@H](C[C@H](C(C)C)N(C)C(=O)[C@@H](NC(=O)[C@H]2CCCCN2C)C(C)C)OC(C)=O)n1
GI50: 7.79 nM

compound: Cc1cccc(-c2[nH]ncc2-c2ccc3ncccc3n2)n1
GI50: 12400 nM

compound: NS(=O)(=O)OCC1OC(n2cnc3cncnc32)C(O)C1O (stereo unspecified)
GI50: 38.9 nM

compound: O=c1cc(-c2ccccc2)oc2ccc(OC/C(=N/O)c3ccccc3)cc12
GI50: 1510 nM
